Numbers sourced from ChEMBL document CHEMBL4428099.

Please go through the items and note down their IC50.
target_desc: Nucleotide-binding oligomerization domain-containing protein 1 (Homo sapiens)
Sequence (Q9Y239 whole entry): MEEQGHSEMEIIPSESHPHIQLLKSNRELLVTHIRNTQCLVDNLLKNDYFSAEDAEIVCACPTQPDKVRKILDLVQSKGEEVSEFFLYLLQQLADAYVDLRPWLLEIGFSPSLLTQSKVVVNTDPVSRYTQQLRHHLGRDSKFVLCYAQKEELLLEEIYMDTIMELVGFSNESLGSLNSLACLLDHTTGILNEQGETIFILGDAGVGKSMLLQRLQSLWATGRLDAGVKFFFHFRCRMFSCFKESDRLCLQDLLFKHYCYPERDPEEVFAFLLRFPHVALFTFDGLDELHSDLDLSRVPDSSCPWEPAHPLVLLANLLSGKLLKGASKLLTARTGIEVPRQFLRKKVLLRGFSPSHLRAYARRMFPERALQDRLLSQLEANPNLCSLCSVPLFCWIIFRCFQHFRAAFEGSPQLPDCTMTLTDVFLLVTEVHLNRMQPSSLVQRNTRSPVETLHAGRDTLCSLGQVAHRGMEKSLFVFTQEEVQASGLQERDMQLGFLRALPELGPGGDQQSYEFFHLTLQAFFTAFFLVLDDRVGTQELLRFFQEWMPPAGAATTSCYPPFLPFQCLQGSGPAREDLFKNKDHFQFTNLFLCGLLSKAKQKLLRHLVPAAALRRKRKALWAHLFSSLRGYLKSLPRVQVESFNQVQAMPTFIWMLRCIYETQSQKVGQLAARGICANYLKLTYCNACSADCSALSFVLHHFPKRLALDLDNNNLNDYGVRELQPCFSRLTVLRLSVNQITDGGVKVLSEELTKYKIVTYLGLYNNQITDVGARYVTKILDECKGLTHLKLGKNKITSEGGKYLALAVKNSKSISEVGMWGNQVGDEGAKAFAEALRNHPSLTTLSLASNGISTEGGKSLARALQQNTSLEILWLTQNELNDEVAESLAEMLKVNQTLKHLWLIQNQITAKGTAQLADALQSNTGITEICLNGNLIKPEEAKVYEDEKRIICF
experiment_description: Inhibition of human NOD1 over-expressed in HEK-Blue cells assessed as inhibition of […] NF-kappaB transcriptional activity preincubated for 1 hr followed by addition of C12-iE-DAP measured after 18 hrs by SEAP reporter gene assay

Previously resolved entries follow.
{"smiles_input": "CCOC(=O)c1cc2ccccc2n1Cc1ccc(C)cc1", "target_desc": "Nucleotide-binding oligomerization domain-containing protein 1 (Homo sapiens)", "IC50": "7.78 µM"}
{"smiles_input": "CCOC(=O)c1cc2ccccc2n1C(=O)c1ccc(C)cc1", "target_desc": "Nucleotide-binding oligomerization domain-containing protein 1 (Homo sapiens)", "IC50": "16 µM"}
{"smiles_input": "CCOC(=O)c1cc2ccccc2n1S(=O)(=O)c1ccc(Cl)cc1", "target_desc": "Nucleotide-binding oligomerization domain-containing protein 1 (Homo sapiens)", "IC50": "19.8 µM"}
{"smiles_input": "CCOC(=O)c1cc2ccccc2n1S(=O)(=O)c1ccc(F)cc1", "target_desc": "Nucleotide-binding oligomerization domain-containing protein 1 (Homo sapiens)", "IC50": "9.22 µM"}
{"smiles_input": "N=C1Cc2ccccc2N1Cc1ccc(Cl)cc1", "target_desc": "Nucleotide-binding oligomerization domain-containing protein 1 (Homo sapiens)", "IC50": "15.7 µM"}
{"smiles_input": "CCOC(=O)c1cc2ccccc2n1S(=O)(=O)c1ccc(C)cc1", "target_desc": "Nucleotide-binding oligomerization domain-containing protein 1 (Homo sapiens)", "IC50": "5.74 µM"}

Now for another entry.
Entry under review: `CCOC(=O)c1cc2ccccc2n1S(=O)(=O)c1ccc([N+](=O)[O-])cc1` . Reported IC50? 15 µM
